For reference, the following IC50 results for Poly [ADP-ribose] polymerase 1 (Homo sapiens) were taken from various sources.

- molecule: "CCCc1ccc(-c2cc3[nH]c(=O)c4ccccc4n3n2)cc1"
  IC50: "> 1000 nM"
- molecule: "O=c1[nH]c2cc(-c3ccc(OC(F)(F)F)cc3)nn2c2ccccc12"
  IC50: "> 1000 nM"
- molecule: "COc1ccc(N2CCN(c3nc4c(c(=O)[nH]3)CSCC4)CC2)cc1"
  IC50: "> 20000 nM"
- molecule: "O=c1[nH]c2c(c3ccccc13)Cc1ccccc1-2"
  IC50: "> 3000 nM"
- molecule: "O=C1N(CCO)c2cc(F)cc(F)c2C12CCN(c1nc3c(c(=O)[nH]1)CCCC3)CC2"
  IC50: "> 20000 nM"

Give Poly [ADP-ribose] polymerase 1 (Homo sapiens) IC50 for CCCN1CCC(Oc2ccc3[nH]c(=O)c4c(c3c2)CCSC4)CC1
42 nM

Short answer please: IC50, Poly [ADP-ribose] polymerase 1 (Homo sapiens), entry NC(=O)c1cccc2[nH]c(-c3ccc(Nc4nccc(N5CCN(c6ccc(C(F)(F)F)cn6)CC5)n4)cc3)nc12
98.2 nM

Observed IC50 on Poly [ADP-ribose] polymerase 1 (Homo sapiens) for NC(=O)c1cccc(F)c1 , please.
20000 nM

----------
Here we gather pIC50 data for Poly [ADP-ribose] polymerase 1 (Homo sapiens) reported by several publications.
pIC50: −log10 of the molar value.
Could you please classify the records by pIC50 using these ranges: 0 = under 7, 1 = from 7 up to 8, 2 = 8 and over

Worked examples, 8 compounds total:
- smiles-representation: "NC(=O)c1c(F)ccc(F)c1OCc1ccc(F)c(C(=O)N2CCNCC2)c1"
  assigned-label: 0
- smiles-representation: "COc1ccccc1C1=CCN(c2nc3c(c(=O)[nH]2)CCCC3)CC1"
  assigned-label: 0
- smiles-representation: "Cc1c(CN2CCN(C(=O)c3cc4cccc(C(N)=O)c4o3)CC2)sc2c(N3CCOCC3)nc(-c3ccc4[nH]ccc4c3)nc12"
  assigned-label: 1
- smiles-representation: "O=C(c1cc(Cc2n[nH]c(=O)c3ccccc23)ccc1F)N1CCn2c(nnc2-c2ccc(CN3CCCC3)o2)C1"
  assigned-label: 2
- smiles-representation: "CC(C)C[C@H](NC(=O)[C@@H](NC(=O)c1cc(Cc2n[nH]c(=O)c3ccccc23)ccc1F)[C@H](C)O)B1O[C@@H]2C[C@@H]3C[C@@H](C3(C)C)[C@]2(C)O1"
  assigned-label: 0
- smiles-representation: "Cc1ccc2nc3n(c2c1)CCN(C(=O)c1cc(Cc2n[nH]c(=O)c4ccccc24)ccc1F)C3"
  assigned-label: 2
- smiles-representation: "O=C(c1cc2[nH]c(=O)c3ccccc3n2n1)N1CCC(CN2CCOCC2)CC1"
  assigned-label: 0
- smiles-representation: "NC(=O)c1c(F)ccc2[nH]c(-c3ccc(N4CCNCC4)cc3)nc12"
  assigned-label: 1

Entry NC(=O)c1cccc2cn(-c3ccccc3)nc12 belongs to which category?
1

Lab note: sort CC(C)N1CCN(Cc2ccc(-c3ccc4c(Cl)cc(C(N)=O)n4n3)cc2)CC1 into the matching pIC50 band.
0

----------
Field: IC50. System: UniProt P09874. Provenance: assorted publications.
Unit nM implied. Number only.

Some solved entries appear below for comparison.
- compound: "Cn1ccnc1C1c2n[nH]c(=O)c3cccc(c23)NC1c1ccc(C(F)(F)F)cc1 (configuration not stated)"
  numeric-value: 5.27
- compound: "CCCCNCc1ccc(-c2[nH]c3cc(F)cc4c3c2C(=O)NNC4=O)cc1"
  numeric-value: 2.42
- compound: "CNCc1ccc(-c2ccc3c(Cl)cc(C(N)=O)n3n2)cc1"
  numeric-value: 249
- compound: "Cn1nccc1C1c2n[nH]c(=O)c3cc(F)cc(c23)NC1c1ccc(F)cc1 (configuration not stated)"
  numeric-value: 1.84
- compound: "Cc1c(CN2CCN(C(=O)c3cc4cccc(C(N)=O)c4o3)CC2)sc2c(N3CCOCC3)nc(-c3ccc(N)cc3)nc12"
  numeric-value: 22.6

# lookup: IC50 of CN(C)Cc1ccc(C2Nc3cc(F)cc4c(=O)[nH]nc(c34)C2c2ccc(F)cc2)cc1 (configuration not stated)
2.63

What value of IC50 has been recorded for this entry: O=C(c1ccc2[nH]c(=O)c3c(c2c1)CCSC3)N1CCN(CCc2ccccc2)CC1
19

Give the measured IC50 of Cc1cc(CN2CCN(c3ccc(C(=O)NC4CC4)cc3)CC2)cc2c1OC(C)C(=O)N2 (racemic) .
33

----------
Collected literature values of pIC50 measured for Poly [ADP-ribose] polymerase 1 (Homo sapiens, UniProt P09874).
pIC50: −log10 of the molar value.

- smiles-representation: "Cc1nn(-c2ccccc2)c2[nH]c(=O)c3c(c12)CSC3"
  pIC50: "< 5.00"
- smiles-representation: "O=c1[nH]c2cc(-c3cccc(F)c3)nn2c2ccccc12"
  pIC50: "< 6.00"
- smiles-representation: "COc1ccccc1N1CCN(c2nc3c(c(=O)[nH]2)CC(F)(F)CC3)CC1"
  pIC50: "< 4.70"
- smiles-representation: "COc1ccccc1N1CCCN(c2nc3c(c(=O)[nH]2)CCCC3)CC1"
  pIC50: "< 4.70"
- smiles-representation: "COc1cccc(N2CCN(c3nc4c(c(=O)[nH]3)CCCC4)CC2)c1"
  pIC50: "< 4.70"

Proceeding to the next compound to report its pIC50.
Please give the measured pIC50 for this compound: Cn1cc(CNCCc2c[nH]c3ccc4c(c23)CCNC4=O)cn1
< 6.30

----------
For reference, the following IC50 results for Poly [ADP-ribose] polymerase 1 (Homo sapiens) were taken from various sources.
Include the unit right after the number.

# count of solved cases: 3
- smiles-representation: "O=c1[nH]c2cc(-c3cccc(Cl)c3)nn2c2ccccc12"
  result: "500 nM"
- smiles-representation: "O=C(c1ccccc1)N1CCN(C(=O)c2cc(Cc3n[nH]c(=O)c4ccccc34)cc(F)c2F)CC1"
  result: "6.1 nM"
- smiles-representation: "C[C@]1(c2nc3c(C(N)=O)c(F)ccc3[nH]2)CCCN1"
  result: "5.7 nM"

Could you now consider this next molecule?
Lab request: please report IC50 under test system Poly [ADP-ribose] polymerase 1 (Homo sapiens) for COc1ccc(Cc2n[nH]c(=O)c3ccccc23)cc1N1C(=O)CCC1=O
33 nM

----------
Multi-source literature compilation: log10 IC50 on Poly [ADP-ribose] polymerase 1 (Homo sapiens, UniProt P09874).
Sequence (P09874 whole entry): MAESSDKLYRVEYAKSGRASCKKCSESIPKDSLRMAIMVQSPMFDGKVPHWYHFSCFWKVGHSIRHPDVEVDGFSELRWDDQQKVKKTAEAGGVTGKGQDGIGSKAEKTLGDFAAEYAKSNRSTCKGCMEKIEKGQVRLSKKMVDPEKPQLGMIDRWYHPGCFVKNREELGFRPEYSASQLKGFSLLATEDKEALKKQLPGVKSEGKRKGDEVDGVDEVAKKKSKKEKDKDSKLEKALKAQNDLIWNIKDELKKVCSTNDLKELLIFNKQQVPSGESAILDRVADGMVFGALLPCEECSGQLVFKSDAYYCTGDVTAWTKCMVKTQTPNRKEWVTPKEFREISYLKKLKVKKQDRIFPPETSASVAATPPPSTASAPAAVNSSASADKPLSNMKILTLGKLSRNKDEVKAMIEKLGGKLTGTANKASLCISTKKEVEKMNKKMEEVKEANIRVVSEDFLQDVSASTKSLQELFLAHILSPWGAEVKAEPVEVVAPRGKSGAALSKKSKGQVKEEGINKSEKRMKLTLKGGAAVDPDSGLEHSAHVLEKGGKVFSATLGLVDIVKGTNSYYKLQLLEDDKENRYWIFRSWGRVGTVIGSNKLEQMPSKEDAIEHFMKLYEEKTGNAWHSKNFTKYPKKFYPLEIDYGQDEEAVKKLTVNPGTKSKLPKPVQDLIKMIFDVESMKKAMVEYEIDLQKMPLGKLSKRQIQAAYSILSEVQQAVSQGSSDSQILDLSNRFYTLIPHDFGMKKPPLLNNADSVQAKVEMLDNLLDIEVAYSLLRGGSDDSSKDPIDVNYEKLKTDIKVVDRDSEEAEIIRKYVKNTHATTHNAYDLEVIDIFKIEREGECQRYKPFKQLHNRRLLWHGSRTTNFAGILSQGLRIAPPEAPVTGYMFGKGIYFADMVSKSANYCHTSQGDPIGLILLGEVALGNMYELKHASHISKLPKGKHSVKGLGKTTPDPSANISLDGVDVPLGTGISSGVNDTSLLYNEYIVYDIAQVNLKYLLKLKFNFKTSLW
Give log10 of IC50, with IC50 taken in nM.

Examples from the recorded data:
- compound: "NC(=O)c1cccc2cc(C(=O)N3CCN(Cc4cc5nc(-c6cnc(N)nc6)nc(N6CCOCC6)c5s4)CC3)oc12"
  log10 IC50: 0.30
- compound: "COc1ccc(C2(CNC(=O)c3ccc(NC(=O)c4ccco4)cc3)CCOCC2)cc1"
  log10 IC50: 3.26
- compound: "COc1ccc(CC(=O)N2CCc3cccc4c3C2CNC4=O)cc1 (configuration not stated)"
  log10 IC50: 0.78
- compound: "CN1CCN(C(=O)c2ccc(-c3cc4[nH]c(=O)c5ccccc5n4n3)cc2)CC1"
  log10 IC50: 3.15
- compound: "Cc1noc(C)c1-c1ccc2c(c1)C(c1ccccc1)N(CC(=O)NC(c1nc3c(C(N)=O)cccc3[nH]1)C(C)C)C(=O)N2 (configuration not stated)"
  log10 IC50: 2.51
- compound: "CCOC(=O)Nc1cccc(Cc2nnc(O)c3ccccc23)c1"
  log10 IC50: 2.06
- compound: "NC(=O)c1cc(Cl)c2ccc(-c3ccc(CN4CCN(C5CC5)CC4)cc3)nn12"
  log10 IC50: 3.03
- compound: "O=C(c1cc(Cc2n[nH]c(=O)c3ccccc23)ccc1F)N1CCn2c(nnc2-c2ccc(CN3CCCCC3)o2)C1"
  log10 IC50: -0.77
- compound: "COc1cc(/C=C/C(=O)Nc2nc(-c3ccccc3)cs2)cc(OC)c1"
  log10 IC50: 3.66
- compound: "Cc1c2ccc(N(C)c3ccnc(Nc4ccc(-c5nc6c(C(N)=O)cccc6[nH]5)c(Cl)c4)n3)cc2nn1C"
  log10 IC50: 2.15

Consider the record given below.
Give Poly [ADP-ribose] polymerase 1 (Homo sapiens, UniProt P09874) log10 IC50 for O=c1[nH]c(CCCN2CCC(c3ccccc3)CC2)nc2ccccc12
1.90

----------
// cross-study collection: IC50 for Poly [ADP-ribose] polymerase 1 (Homo sapiens, UniProt P09874)
Report the value in µM with no unit label.

Reference set (4 entries):
- compound: "O=c1[nH]cnc2ccc(F)cc12"
  numeric-value: 9.01
- compound: "NC(=O)c1cccc2c1O/C(=C\\c1cccc(Oc3ccccc3)c1)C2=O"
  numeric-value: 4.65
- compound: "O=C1NCCn2c(-c3ccc(CN4CCCCC4)cc3)nc3cncc1c32"
  numeric-value: 0.029
- compound: "CCN1CCCN(C(=O)c2cccc(Cc3nnc(O)c4ccccc34)c2)CC1"
  numeric-value: 0.015

# returns recorded IC50 (system: Poly [ADP-ribose] polymerase 1 (Homo sapiens, UniProt P09874)) for CNC(=O)c1ccc(N2CCN(Cc3cc4c(c(OC)c3)OC(C)C(=O)N4)CC2)cc1 (racemic)
0.029

Give Poly [ADP-ribose] polymerase 1 (Homo sapiens, UniProt P09874) IC50 for CN(c1ccc(Cl)cc1)c1ccnc(Nc2ccc(-c3nc4cc(F)c(F)cc4[nH]3)cc2)n1
0.661

Field: IC50 (Poly [ADP-ribose] polymerase 1 (Homo sapiens, UniProt P09874)). Entry: Cc1cc(C)c2nc[nH]c(=O)c2c1
1.39

For Poly [ADP-ribose] polymerase 1 (Homo sapiens, UniProt P09874), provide IC50 of Cc1cc2[nH]c(=O)c3ccccc3n2n1 please.
0.3

Recorded IC50 for O=C(c1cccc(Cc2n[nH]c(=O)c3ccccc23)c1)N1CCN(CCO)CC1 with Poly [ADP-ribose] polymerase 1 (Homo sapiens, UniProt P09874), please?
0.039
